- Tested on: NCI-H226
- assay_notes: NCI tumour cell line growth inhibition, 48 h
Activity calls are given as the source filed them. Rule as the data show it: active = GI50 up to about 1.1 µM and inactive = higher.
GI50 reference
readout_label: GI50

| compound | readout_label | measured |
| --- | --- | --- |
| COc1cc(/C=C/C(=O)c2ccc(O)c(OC)c2)ccc1O | GI50 | 24.5 µM (inactive) |
| C=C/C(C)=C\CC1[C@](C)(O)CC[C@H]2C(C)(C)C(O)CC[C@]12C (stereo not given in full) | GI50 | > 100 µM (inactive) |
| CCOC(=O)c1nc2ccccc2nc1NCc1ccc(OC)cc1 | GI50 | > 100 µM (inactive) |
| C/C1=C/C(C)CC(C)OC(=O)C(C)NC(=O)C(Cc2ccc(O)c(I)c2)N(C)C(=O)C(C)NC(=O)C(C)C1 (stereo not given) | GI50 | < 0.0363 µM (active) |
| C/C(=N\NC(=S)N1CCN(c2ccccn2)CC1)c1cccc2cccnc12 | GI50 | 5.77 µM (inactive) |
| CCOC(=O)C(=O)Nc1cccc(Cl)c1C | GI50 | > 100 µM (inactive) |
| CC(C(O)c1ccccc1)N(C)/N=N/c1nc2c([nH]1)c(=O)n(C)c(=O)n2C (stereo not given) | GI50 | > 100 µM (inactive) |
| COc1cc(Br)c(CC2=NCCc3cc(OC)c(OC)cc32)cc1OC | GI50 | 11 µM (inactive) |
| Oc1ccc[nH]c1=[Se] | GI50 | > 100 µM (inactive) |
| CC1(C)C(=O)C(C)(C)C1=NN | GI50 | > 100 µM (inactive) |
